test: Cytotoxicity against human MT2 cells by XTT assay; type: cell-based

test smiles	CC50
CC1=CC[C@H]2C(C)(C)[C@@H](Br)CC[C@]2(C)[C@@H]1Cc1cc(O)c(CC(=O)O)cc1O	> 100 µM
CC(=O)OC[C@H]1[C@@]2(C)CC[C@H](Br)C(C)(C)[C@H]2CC[C@]1(C)O	> 100 µM
CC1(C)[C@@H](Br)CC[C@@]2(C)[C@H]1CC[C@@]1(C)Oc3cc(C=O)c(O)cc3C[C@@H]21	5 µM
CC(=O)OC[C@@H]1[C@@]2(C)CC[C@H](Br)C(C)(C)[C@@H]2CC[C@@]1(C)O	40 µM
CC1(C)[C@@H](I)CC[C@@]2(C)[C@H]1CC[C@@]1(C)OC(=O)OC[C@@H]21	30 µM
CC1(C)[C@@H](Br)CC[C@@]2(C)[C@H]1CC[C@@](C)(O)[C@H]2CO	90 µM
C=C1CC[C@@H]2C(C)(C)[C@@H](Br)CC[C@]2(C)[C@H]1Cc1cc(O)c(C=O)cc1O	4 µM
CC(=O)OC[C@H]1[C@@]2(C)CC[C@H](Br)C(C)(C)[C@@H]2CC[C@@]1(C)O	90 µM
CC1=C(Cc2cc(O)c(C=O)cc2O)[C@@]2(C)CC[C@H](Br)C(C)(C)[C@@H]2CC1	4 µM
CC1(C)[C@H]2CC[C@]3(C)OC(=O)OC[C@@H]3[C@@]2(C)CC[C@@H]1Br	70 µM
CC1(C)[C@@H](Br)CC[C@]2(C)[C@H]3COC(=O)O[C@]3(C)CC[C@@H]12	> 100 µM
CC1(C)CCC[C@@]2(C)[C@H]1CC[C@@]1(C)OC(=O)OC[C@@H]21	30 µM
CC1(C)[C@@H](Cl)CC[C@@]2(C)[C@H]1CC[C@@]1(C)OC(=O)OC[C@@H]21	40 µM
CC1=CC[C@H]2C(C)(C)[C@@H](Br)CC[C@]2(C)[C@@H]1Cc1cc(O)c(C=O)cc1O	4 µM
CC1(C)[C@@H](Br)CC[C@@]2(C)[C@H]1CC[C@@]1(C)OC(=O)OC[C@@H]21	90 µM
CC1(C)[C@H]2CC[C@]3(C)OC(=O)OC[C@H]3[C@@]2(C)CC[C@@H]1Br	> 100 µM
CC(=O)OC[C@@H]1[C@@]2(C)CC[C@H](Br)C(C)(C)[C@H]2CC[C@]1(C)O	70 µM

----------
experiment: Cytotoxicity against human MT2 cells by XTT assay; type: cell-based

test smiles	comparative sign	CC50, µM
Cc1cc(O)c(C=O)cc1O	=	30
C=C1CC[C@@H]2C(C)(C)[C@@H](Br)CC[C@]2(C)[C@@H]1Cc1cc(O)c(C=O)cc1O	=	5
C=C1CC[C@H]2C(C)(C)[C@@H](Br)CC[C@]2(C)[C@@H]1Cc1cc(O)c(C=O)cc1O	=	4
O=Cc1cc(O)c(CC2CCCCC2)cc1O	>	100
C=C1CC[C@H]2C(C)(C)[C@@H](Br)CC[C@]2(C)[C@H]1Cc1cc(O)c(C=O)cc1O	=	2
